# subject-of-test: T1, cynomolgus monkey (cyno) TSLP (cynomolgus monkey, UniProt A0A7N9CAT7 29-159)
# T1 construct: also called cTSLP; cynomolgus TSLP
# test-method-notes: SPR
Here, each record is paired with measured kon data.
Report the figure in M⁻¹ s⁻¹ without appending any unit label.

Below are worked cases with known answers.
binder	value-unit	reading
BDG38.092 (antibody, V domains shown, IgG1) VH: QMQLVESGGGVVQPGRSLTLSCAASGFEFRTYGMHWVRQAPGKGLEWLAVIWDDGSNTHYADSVKGRFTITRDNSKNTLNLQMNSLRVEDTAVYYCVRAPQWYLTAEAFDLWGQGTMVTVSS VL: SYVLTQPPSVSVAPGETATITCGGNLIGARLVHWYQQKPGQAPVLVIYDDSDRPSRIPERFSGSNIGNTATLTISDVEEGDEADYYCQVWDYYSDHMVFGGGTKLTVL	M⁻¹ s⁻¹	3.84e+06
BDG38.132 (antibody, V domains shown, IgG1) VH: QMQLVESGGGVVQPGRSLRLSCAASGFEFRTYGMHWVRQAPGKGLEWVGVIWDDGSNTHYADSVKGRFTITRDNSKNTLNLQMNSLRAEDTAVYYCVRAPQWYLTAEAFDLWGQGTMVTVSS VL: SYILTQPPSVSVAPGETATITCGGNLIGARLVHWYQQKPGQAPVLVIYDDSDRPSRIPERFSGSNIGNTATLTISRVEAGDEADYYCQVWDYSSDHMVFGGGTKLTVL	M⁻¹ s⁻¹	6.83e+06
BDG38.090 (antibody, V domains shown, IgG1) VH: QMQLVESGGGVVQPGRSLTLSCAASGFEFRTYGMHWVRQAPGKGLEWLGVIWDDGSNTHYADSVKGRFTITRDNSKNTLNLQMNSLRVEDTAVYYCARAPQWYLTAEAFDLWGQGTMVTVSS VL: SYILTQPPSVSVAPGETARITCGGNLIGARLVHWYQQKPGQAPVLVVYDDSDRPSRIPERFSGSNIGNTATLTIEDVEEGDEADYYCQVWDYYSDHMVFGGGTKLTVL	M⁻¹ s⁻¹	6.14e+06
BDG38.116 (antibody, V domains shown, IgG1) VH: QMQLVESGGGVVQPGRSLTLSCAASGFEFRTYGMHWVRQAPGKGLEWVAVIWDDGSNTHYADSVKGRFTITRDNSKNTLNLQMNSLRVEDTAVYYCVRAPQWYLTAEAFDLWGQGTMVTVSS VL: SYVLTQPPSVSVAPGQTATITCGGNLIGARLVHWYQQKPGQAPVLVIYDDSDRPSRIPERFSGSNIGNTATLTIERVEAGDEADYYCQVWDYYSDTMVFGGGTKLTVL	M⁻¹ s⁻¹	1.43e+07

Asked: Identify measured kon corresponding to BDG38.117 (antibody, V domains shown, IgG1) VH: QMQLVESGGGVVQPGRSLTLSCAASGFEFRTYGMHWVRQAPGKGLEWVGVIWDDGSNTHYADSVKGRFTITRDNSKNTLNLQMNSLRAEDTAVYYCARAPQWYLTAEAFDLWGQGTMVTVSS VL: SYVLTQPPSVSVAPGETATITCGGNLIGAKLVHWYQQKPGQAPVLVIYDDSDRPSRIPERFSGSNIGNTATLTIEDVEAGDEADYYCQVWDYSSDTMVFGGGTKLTVL
Given back: 5.08e+07
